assay: in vivo; conditions: male, Sprague-Dawley, rat, plasma, po, 1.05 mg/kg, Cmax, MDA-L group: T2DM rats, ARE 300 mg/kg once a day for 7 days + DAPA single dose 1.05 mg/kg on day 7; n=6, mean ± SD
measured_quantity: Cmax (ng/mL)
Numbers only here, please. The scale is ng/mL.

Q: // returns reported Cmax for input `CCOc1ccc(Cc2cc([C@@H]3O[C@H](CO)[C@@H](O)[C@H](O)[C@H]3O)ccc2Cl)cc1`
Ans: 433

----------
assay: Pharmacokinetics of DAPA in healthy rats (alone or co-administered with ARE), plasma by UPLC-MS/MS; type: in vivo, Sprague Dawley (SD) rats; settings: male, Sprague-Dawley, rat, plasma, po, 1.05 mg/kg, CDA-H group: healthy rats, ARE 900 mg/kg once a day for 7 days + DAPA single dose 1.05 mg/kg on day 7; n=6, mean ± SD
measured_quantity: half-life (min)
Numbers only here, please. The scale is min.

Q: // returns reported half-life for input `CCOc1ccc(Cc2cc([C@@H]3O[C@H](CO)[C@@H](O)[C@H](O)[C@H]3O)ccc2Cl)cc1`
Ans: 238

----------
assay: in vivo; settings: male, Sprague-Dawley, rat, plasma, po, 1.05 mg/kg, t1/2, MDA-H group: T2DM rats, ARE 900 mg/kg once a day for 7 days + DAPA single dose 1.05 mg/kg on day 7; n=6, mean ± SD
measured_quantity: half-life
A bare number is not enough; add the unit after it.

Q: // returns reported half-life for input `CCOc1ccc(Cc2cc([C@@H]3O[C@H](CO)[C@@H](O)[C@H](O)[C@H]3O)ccc2Cl)cc1`
Ans: 7.44 h

----------
experiment: in vivo; conditions: male, Sprague-Dawley, rat, plasma, po, 1.05 mg/kg, tmax, MDA-L group: T2DM rats, ARE 300 mg/kg once a day for 7 days + DAPA single dose 1.05 mg/kg on day 7; n=6, mean ± SD
measured_quantity: Tmax (h)
Numbers only here, please. The scale is h.

Q: // returns reported Tmax for input `CCOc1ccc(Cc2cc([C@@H]3O[C@H](CO)[C@@H](O)[C@H](O)[C@H]3O)ccc2Cl)cc1`
Ans: 1.25

----------
assay: in vivo; details: male, Sprague-Dawley, rat, plasma, po, 1.05 mg/kg, MRT(0-t), MD group: T2DM rats, DAPA alone, single intragastric dose 1.05 mg/kg; n = 6, mean ± SD
measured_quantity: MRT last

Q: // returns reported MRT last for input CCOc1ccc(Cc2cc([C@@H]3O[C@H](CO)[C@@H](O)[C@H](O)[C@H]3O)ccc2Cl)cc1 [DAPA, Dapagliflozin]
Ans: 7.57 h

----------
experiment: Pharmacokinetics of DAPA in healthy rats (alone or co-administered with ARE), plasma by UPLC-MS/MS; format: in vivo, Sprague Dawley (SD) rats; settings: male, Sprague-Dawley, rat, plasma, po, 1.05 mg/kg, CD group: healthy rats, DAPA alone, single intragastric dose 1.05 mg/kg; n = 6, mean ± SD; read-out: MRT(0-t)
measured_quantity: MRT last
A bare number is not enough; add the unit after it.

Q: // returns reported MRT last for input `CCOc1ccc(Cc2cc([C@@H]3O[C@H](CO)[C@@H](O)[C@H](O)[C@H]3O)ccc2Cl)cc1`
Ans: 6.89 h

----------
Assay: Pharmacokinetics of DAPA in healthy rats (alone or co-administered with ARE), plasma by UPLC-MS/MS
Assay type: in vivo, Sprague Dawley (SD) rats
Settings: male, Sprague-Dawley, rat, plasma, po, 1.05 mg/kg, CDA-H group: healthy rats, ARE 900 mg/kg once a day for 7 days + DAPA single dose 1.05 mg/kg on day 7; n=6, mean ± SD
Method: The column temperature was maintained at 40°C. […] The sample injection volume was 2 μL. […] The ion spray voltage was set at […]. […] The source temperature was kept at 200°C. The collision gas was set at low flow rate. […] The samples were processed by the procedure described above.
measured_quantity: Tmax (h)
Numbers only here, please. The scale is h.

Q: // returns reported Tmax for input `CCOc1ccc(Cc2cc([C@@H]3O[C@H](CO)[C@@H](O)[C@H](O)[C@H]3O)ccc2Cl)cc1`
Ans: 2.61

These measurements were taken from paper PMC10597649.
